// data source = patent US8524745B2

Target desc: CCR2 (Homo sapiens)
Construct: expressed in transfected cells
Sequence (P41597 whole entry, species assumed): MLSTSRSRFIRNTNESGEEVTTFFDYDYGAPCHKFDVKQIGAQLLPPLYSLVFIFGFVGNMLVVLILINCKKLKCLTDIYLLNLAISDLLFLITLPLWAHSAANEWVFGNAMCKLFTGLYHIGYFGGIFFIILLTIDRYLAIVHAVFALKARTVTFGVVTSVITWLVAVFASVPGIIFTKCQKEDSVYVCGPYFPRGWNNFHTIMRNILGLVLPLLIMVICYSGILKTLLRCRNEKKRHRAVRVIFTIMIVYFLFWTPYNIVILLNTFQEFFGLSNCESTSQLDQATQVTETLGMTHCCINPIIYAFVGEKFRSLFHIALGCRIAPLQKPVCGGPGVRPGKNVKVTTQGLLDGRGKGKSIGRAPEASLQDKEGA
Assay remarks: CCR2 calcium activity assay on FLIPR Tetra in HEK-Gqi5 cells stably expressing CCR2
Type: cell-based
Assign CCR2 % ANTAG to each entry below.
Express it in %; write the number only.

Lookup: Value lookup for CCR2 % ANTAG; key = Cn1sc(=O)c2cc(S(=O)(=O)Nc3ccccc3NS(=O)(=O)c3cc(F)cc(F)c3)ccc21
Found: 96

Lookup: Now try Cn1sc(=O)c2cc(S(=O)(=O)Nc3cc(C#N)ccc3NS(=O)(=O)c3cccs3)ccc21 .
Found: 59

Lookup: Now try COc1ccc(NS(=O)(=O)c2ccc3c(c2)c(=O)sn3C)c(NS(=O)(=O)c2cccs2)c1 .
Found: 60

Lookup: Now try CC(C)c1ccc(NS(=O)(=O)c2cccs2)c(NS(=O)(=O)c2ccc3c(c2)c(=O)sn3C)c1 .
Found: 85

Lookup: Now try Cn1cc(S(=O)(=O)Nc2ccccc2NS(=O)(=O)c2ccc3c(c2)c(=O)sn3C)cn1 .
Found: 60

Lookup: Now try Cc1ccc(S(=O)(=O)Nc2ccc(Cl)cc2NS(=O)(=O)c2ccc3c(c2)c(=O)sn3C)s1 .
Found: 95

Lookup: Now try Cc1cc(NS(=O)(=O)c2ccc3c(c2)c(=O)sn3C)c(NS(=O)(=O)c2cccs2)cc1Cl .
Found: 75

Lookup: Now try Cn1sc(=O)c2cc(S(=O)(=O)Nc3cc(Cl)ccc3NS(=O)(=O)c3ccc(Cl)c(Cl)c3)ccc21 .
Found: 97

Lookup: Now try Cn1sc(=O)c2cc(S(=O)(=O)Nc3cccnc3NS(=O)(=O)c3cccs3)ccc21 .
Found: 83

Lookup: Now try Cn1cnc(S(=O)(=O)Nc2ccccc2NS(=O)(=O)c2ccc3c(c2)c(=O)sn3C)c1 .
Found: 99

Lookup: Now try CC(C)c1ccc(NS(=O)(=O)c2ccc3c(c2)c(=O)sn3C)c(NS(=O)(=O)c2cccs2)c1 .
Found: 87

Lookup: Now try Cn1sc(=O)c2cc(S(=O)(=O)N[C@@H]3CCCC[C@@H]3NS(=O)(=O)c3ccc(Cl)c(C(F)(F)F)c3)ccc21 (relative stereo) .
Found: 93

Lookup: Now try COc1ccccc1S(=O)(=O)Nc1ccc(Cl)cc1NS(=O)(=O)c1ccc2c(c1)c(=O)sn2C .
Found: 91

Lookup: Now try Cn1sc(=O)c2cc(S(=O)(=O)Nc3c(Cl)cccc3NS(=O)(=O)c3cccs3)ccc21 .
Found: 106

Lookup: Now try COc1cccc(S(=O)(=O)Nc2cc(Cl)c(Cl)cc2NS(=O)(=O)c2ccc3c(c2)c(=O)sn3C)c1 .
Found: 92

Lookup: Now try Cc1ccc(S(=O)(=O)Nc2ccc(Cl)cc2NS(=O)(=O)c2ccc3c(c2)c(=O)sn3C)cc1 .
Found: 95

Lookup: Now try Cn1sc(=O)c2cc(S(=O)(=O)N3CCCC(NS(=O)(=O)c4cccs4)C3)ccc21 (centres unmarked) .
Found: 54

* * *

Target desc: CCR2 (Homo sapiens)
Construct: expressed in transfected cells
Assay remarks: CCR2 calcium activity assay on FLIPR Tetra in HEK-Gqi5 cells stably expressing CCR2
Format: cell-based
Binary classification by CCR2 % ANTAG, with 60% as an inclusive lower bound for Fulfilled; all other cases are Not fulfilled.

Lookup: Would you say Cn1sc(=O)c2cc(S(=O)(=O)Nc3ccccc3NS(=O)(=O)c3cccc(C(F)(F)F)c3)ccc21 shows CCR2 % ANTAG at minimum 60%?
Found: Fulfilled

Lookup: Now try Cn1sc(=O)c2cc(S(=O)(=O)N[C@@H]3CCCC[C@@H]3NS(=O)(=O)c3cccs3)ccc21 (relative stereo) .
Found: Fulfilled

Lookup: Now try Cn1sc(=O)c2cc(S(=O)(=O)N3CCN(S(=O)(=O)c4cccs4)c4ccccc43)ccc21 .
Found: Fulfilled

Lookup: Now try Cn1sc(=O)c2cc(S(=O)(=O)Nc3ccccc3NS(=O)(=O)c3ccc(C(F)(F)F)cc3)ccc21 .
Found: Not fulfilled

Lookup: Now try CCc1ccc(NS(=O)(=O)c2cccs2)c(NS(=O)(=O)c2ccc3c(c2)c(=O)sn3C)c1 .
Found: Fulfilled

Lookup: Now try Cn1sc(=O)c2cc(S(=O)(=O)NCC(C)(C)NS(=O)(=O)c3cccs3)ccc21 .
Found: Not fulfilled

Lookup: Now try Cn1sc(=O)c2cc(S(=O)(=O)Nc3ccc(C#N)cc3NS(=O)(=O)c3cccs3)ccc21 .
Found: Not fulfilled

Lookup: Now try COc1ccc(C(=O)Nc2ccc(Cl)cc2NS(=O)(=O)c2ccc3c(c2)c(=O)sn3C)cc1 .
Found: Not fulfilled

* * *

Target desc: CCR2 (Homo sapiens)
Construct: expressed in transfected cells
Assay remarks: CCR2 calcium activity assay on FLIPR Tetra in HEK-Gqi5 cells stably expressing CCR2
Assay type: cell-based
Result type: pIC50
In plain terms, pIC50 is the concentration in mol/L turned into minus its base-10 logarithm.

Lookup: Value lookup for pIC50; key = Cn1sc(=O)c2cc(S(=O)(=O)Nc3cc(Cl)ccc3NS(=O)(=O)c3ccc(Cl)c(Cl)c3)ccc21
Found: 5.89

Lookup: Now try Cn1sc(=O)c2cc(S(=O)(=O)Nc3cc(Br)ccc3NS(=O)(=O)c3cccs3)ccc21 .
Found: 6.27

Lookup: Now try Cn1sc(=O)c2cc(S(=O)(=O)Nc3cc4ccccc4cc3NS(=O)(=O)c3cccs3)ccc21 .
Found: 5.66

Lookup: Now try Cn1ccc(S(=O)(=O)Nc2ccccc2NS(=O)(=O)c2ccc3c(c2)c(=O)sn3C)n1 .
Found: 5.77

Lookup: Now try CCOc1ccc(S(=O)(=O)Nc2ccc(Cl)cc2NS(=O)(=O)c2ccc3c(c2)c(=O)sn3C)cc1 .
Found: 5.55

Lookup: Now try COc1ccc(S(=O)(=O)Nc2ccc(Cl)cc2NS(=O)(=O)c2ccc3c(c2)c(=O)sn3C)cc1 .
Found: 6.68

Lookup: Now try Cn1sc(=O)c2cc(S(=O)(=O)N[C@@H]3CCCC[C@H]3NS(=O)(=O)c3cccs3)ccc21 (relative stereo) .
Found: 5.63

Lookup: Now try COc1cccc(NS(=O)(=O)c2ccc3c(c2)c(=O)sn3C)c1 .
Found: 5.61

Lookup: Now try CSc1cccc(NS(=O)(=O)c2ccc3c(c2)c(=O)sn3C)c1 .
Found: 5.93

* * *

Target desc: UniProt:P41597
Assay remarks: CCR2 calcium activity assay on FLIPR Tetra in HEK-Gqi5 cells stably expressing CCR2
Label Yes when IC50 is strictly below 1000 nM; otherwise label No.

Lookup: Hello, I'm reviewing records and need to know if IC50 of CC(C)c1ccc(NS(=O)(=O)c2cccs2)c(NS(=O)(=O)c2ccc3c(c2)c(=O)sn3C)c1 is below 1000 nM. Could you check?
Found: Yes

Lookup: Now try Cn1sc(=O)c2cc(S(=O)(=O)Nc3cc(Cl)c(Cl)cc3NS(=O)(=O)c3cccs3)ccc21 .
Found: Yes

Lookup: Now try Cn1sc(=O)c2cc(S(=O)(=O)Nc3ccc(Cl)c(Cl)c3)ccc21 .
Found: No

Lookup: Now try Cn1sc(=O)c2cc(S(=O)(=O)Nc3ccccc3NS(=O)(=O)c3cc(Cl)ccc3Cl)ccc21 .
Found: No

Lookup: Now try Cn1sc(=O)c2cc(S(=O)(=O)Nc3cc(Cl)cc4c3OCCO4)ccc21 .
Found: No

* * *

Target desc: CCR2 (Homo sapiens)
Construct: expressed in transfected cells
Assay remarks: CCR2 calcium activity assay on FLIPR Tetra in HEK-Gqi5 cells stably expressing CCR2
Format: cell-based
Description: HEK-Gqi5 cells stably expressing CCR2 were cultured in (DMEM high glucose, 10% FBS, 1% PSA, 400 μg/ml geneticin and 50 μg/ml hygromycin. Appropriate positive control chemokines (MCP-1, MIP1A or RANTES) was used as the positive control agonist for screening compound-induced calcium activity assayed on the FLIPR^Tetra. The drug plates were prepared in 384-well microplates using the EP3 and the MuItiPROBE robotic liquid handling systems. Compounds were synthesized and tested for CCR2 activity.
Result type: CCR2 % ANTAG
Write the quantity with the unit trailing the number.

Lookup: Give the reported CCR2 % ANTAG for COc1ccc(S(=O)(=O)Nc2ccc(Cl)cc2NS(=O)(=O)c2ccc3c(c2)c(=O)sn3C)cc1OC (system: CCR2 (Homo sapiens)).
Found: 93%

Lookup: Now try Cn1sc(=O)c2cc(S(=O)(=O)Nc3cccc4c3OCCO4)ccc21 .
Found: 76%

Lookup: Now try Cn1sc(=O)c2cc(S(=O)(=O)Nc3cccc(NS(=O)(=O)c4cccs4)c3)ccc21 .
Found: 23%

Lookup: Now try Cn1sc(=O)c2cc(S(=O)(=O)Nc3cc(C(F)(F)F)ccc3NS(=O)(=O)c3cccs3)ccc21 .
Found: 103%

Lookup: Now try Cn1sc(=O)c2cc(S(=O)(=O)Nc3ccccc3NS(=O)(=O)c3nnc[nH]3)ccc21 .
Found: 90%

Lookup: Now try Cn1sc(=O)c2cc(S(=O)(=O)Nc3cc(Cl)ccc3NS(=O)(=O)c3cccs3)ccc21 .
Found: 98%

Lookup: Now try Cn1sc(=O)c2cc(S(=O)(=O)Nc3cccc(SC(F)(F)F)c3)ccc21 .
Found: 85%

Lookup: Now try Cn1sc(=O)c2cc(S(=O)(=O)Nc3ccccc3CNS(=O)(=O)c3cccs3)ccc21 .
Found: 61%

Lookup: Now try Cn1sc(=O)c2cc(S(=O)(=O)Nc3cc(Cl)c(Cl)cc3NS(=O)(=O)c3cc(Cl)c(Cl)s3)ccc21 .
Found: 103%
